Recorded pIC50 for the following compounds
# SYSTEM_NAME: reuptake of dopamine (DA) in synaptosomes (Rattus norvegicus, UniProt P23977)
# Construct: in synaptosomes as described in WO 97/16451
# Sequence (P23977 whole entry): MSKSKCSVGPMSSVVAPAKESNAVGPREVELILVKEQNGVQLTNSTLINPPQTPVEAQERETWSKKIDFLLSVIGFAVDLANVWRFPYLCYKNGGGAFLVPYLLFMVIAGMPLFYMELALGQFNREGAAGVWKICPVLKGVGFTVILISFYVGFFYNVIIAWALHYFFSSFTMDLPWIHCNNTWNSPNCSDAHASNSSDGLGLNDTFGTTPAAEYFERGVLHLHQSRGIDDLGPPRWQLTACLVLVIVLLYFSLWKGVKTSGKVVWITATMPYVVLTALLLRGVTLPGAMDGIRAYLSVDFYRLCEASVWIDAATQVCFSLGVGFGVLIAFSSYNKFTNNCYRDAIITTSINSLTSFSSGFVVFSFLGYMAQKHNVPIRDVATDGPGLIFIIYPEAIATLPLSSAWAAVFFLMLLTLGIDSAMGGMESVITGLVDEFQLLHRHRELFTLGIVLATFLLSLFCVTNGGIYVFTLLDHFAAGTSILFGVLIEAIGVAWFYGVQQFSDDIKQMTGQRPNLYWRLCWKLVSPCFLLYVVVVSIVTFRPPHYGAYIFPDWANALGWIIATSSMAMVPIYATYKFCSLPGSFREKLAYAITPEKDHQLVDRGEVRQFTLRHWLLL
# ASSAY_TEXT: Inhibition of dopamine reuptake in synaptosomes
# EXPERIMENTAL_SETUP: 3H-DA, read-out: DA-uptake IC50
pIC50: −log10 of the molar value.
PROPERTY_NAME: pIC50

{"COMPOUND": "CN1C2CCCC1CN(c1ccc3ccccc3n1)C2 [2nd compound of Method A]", "VALUE_OBSERVED": "< 6.00"}
{"COMPOUND": "COc1ccc2nc(N3CC4CCCC(C3)N4C)ccc2c1 [5th compound of Method A]", "VALUE_OBSERVED": 5.74}
{"COMPOUND": "O=[N+]([O-])c1ccc2nc(N3CC4CCCC(C3)N4)ccc2c1 [1st compound of Method B]", "VALUE_OBSERVED": "< 6.00"}

---

# SYSTEM_NAME: reuptake of noradrenaline (NA) in synaptosomes (Rattus norvegicus, UniProt Q63380)
# Construct: in synaptosomes as described in WO 97/16451; from tissue
# Sequence (Q63380 1-617): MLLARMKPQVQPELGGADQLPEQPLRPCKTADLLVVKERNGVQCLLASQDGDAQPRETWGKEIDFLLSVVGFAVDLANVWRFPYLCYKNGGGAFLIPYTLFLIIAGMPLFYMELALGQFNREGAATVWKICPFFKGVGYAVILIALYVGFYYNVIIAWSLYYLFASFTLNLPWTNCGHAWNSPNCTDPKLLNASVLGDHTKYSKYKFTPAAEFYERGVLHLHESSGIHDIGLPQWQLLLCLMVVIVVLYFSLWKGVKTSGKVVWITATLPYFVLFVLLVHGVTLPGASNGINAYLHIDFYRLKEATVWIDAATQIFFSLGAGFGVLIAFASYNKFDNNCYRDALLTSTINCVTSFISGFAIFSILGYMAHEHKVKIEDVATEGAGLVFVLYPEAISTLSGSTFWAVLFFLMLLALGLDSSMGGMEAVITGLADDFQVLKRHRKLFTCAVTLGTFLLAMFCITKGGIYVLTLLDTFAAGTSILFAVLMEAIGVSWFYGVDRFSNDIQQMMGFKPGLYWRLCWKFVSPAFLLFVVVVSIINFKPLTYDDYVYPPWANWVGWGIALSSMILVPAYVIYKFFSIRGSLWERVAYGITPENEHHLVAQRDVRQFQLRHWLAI
# ASSAY_TEXT: Inhibition of noradrenaline reuptake in synaptosomes
# Assay type: biochemical
PROPERTY_NAME: IC50 (nM)

{"LINE_NOTATION": "COc1ccc2nc(N3CC4CCCC(C3)N4C)ccc2c1", "VALUE_OBSERVED": 100}

---

Below, each of the molecules is paired with its reported IC50 value.
# SYSTEM_NAME: reuptake of noradrenaline (NA) in synaptosomes (Rattus norvegicus)
# Construct: in synaptosomes as described in WO 97/16451; from tissue
# ASSAY_TEXT: Inhibition of noradrenaline reuptake in synaptosomes
# Type: biochemical
# EXPERIMENTAL_SETUP: synaptosomes, 3H-NA; read-out: NA-uptake IC50
PROPERTY_NAME: IC50 (nM)

{"LINE_NOTATION": "CN1C2CCCC1CN(c1ccc3ccccc3n1)C2", "VALUE_OBSERVED": 140}
{"LINE_NOTATION": "O=[N+]([O-])c1ccc2nc(N3CC4CCCC(C3)N4)ccc2c1", "VALUE_OBSERVED": 1200}
